These data points were gathered from patent US7176320B2.

# test.summary: Measurement of blood concentration during administration by intragastric forced feeding to rats
# Format: in vivo, rat
# condition.summary: rat, oral, male SD rats, fasting, 30 mg/kg, serum, 30 minutes after administration, read-out: Blood concentration of the unchanged form After 30 min.
property.name: concentration at 30 min (ng/mL)
Express the result in ng/mL but write the number alone.

# get_value(readout='concentration at 30 min', item= Cc1cccc2c1c(Cn1c(SCCCC(=O)O)nc3ccccc31)cn2C )
16100

* * *

# test.summary: Measurement of blood concentration during administration by intragastric forced feeding to rats
# Type: in vivo, rat
# condition.summary: rat, oral, male SD rats, fasting, 30 mg/kg, serum, 4 hours after administration, read-out: Blood concentration of the unchanged form After 4 hr.
property.name: concentration at 4 h (ng/mL)
Please state the figure in ng/mL; there is no need to write the unit.

If you can, please state the reported concentration at 4 h value of Cc1cccc2c1c(Cn1c(SCCCC(=O)O)nc3ccccc31)cn2C [Compound No. 39] .
6300

* * *

# test.summary: In vitro metabolism test using liver microsomes (Ms)
# Assay type: in vitro ADME
# condition.summary: liver microsomes 1.0 mg/mL, substrate 5.0 μM, NADPH 1.0 mM, 37° C., pH 7.4
property.name: MR (metabolic rate at its maximum) (nmol/min./mg protein)
Give your result in nmol/min./mg protein as a bare value.

Which MR (metabolic rate at its maximum) is reported for this molecule? O=C(O)CCCSc1nc2ccccc2n1Cc1csc2ccccc12
0.331

Then this molecule: Cc1cccc2c1c(Cn1c(SCCCC(=O)O)nc3ccccc31)cn2C
0

Try the molecule Cc1ccc2scc(Cn3c(SCCCC(=O)O)nc4cc(C)c(C)cc43)c2c1
0.131

Continue with Cc1cc2nc(SCCCC(=O)O)n(Cc3cn(C)c4cccc(C)c34)c2cc1C
0.102

Try the molecule COc1ccc2c(c1)nc(SCCCC(=O)O)n2Cc1cn(C)c2cccc(C)c12
0.097

* * *

# test.summary: In vitro metabolism test using liver microsomes (Ms)
# Type: in vitro ADME
# condition.summary: liver microsomes 1.0 mg/mL, substrate 5.0 μM, NADPH 1.0 mM, 37° C., 30 min.
property.name: Percentage of substrate remaining after 30 min. (%)
Field: numeric (%). Do not append units.

What value of Percentage of substrate remaining after 30 min. has been reported for the following molecule? Cc1ccc2scc(Cn3c(SCCCC(=O)O)nc4ccccc43)c2c1
41.2

Note, next up: Cc1cc2nc(SCCCC(=O)O)n(Cc3cn(C)c4ccccc34)c2cc1C
48.7

// next record O=C(O)CCCSc1nc2ccccc2n1Cc1csc2ccccc12
47.5

How about Cc1cc2nc(SCCCC(=O)O)n(Cc3cn(C)c4cccc(C)c34)c2cc1C ?
52.9

// repeat for Cc1ccc2scc(Cn3c(SCCCC(=O)O)nc4cc(C)c(C)cc43)c2c1 and report
56.3

Now this one: COc1ccc2c(c1)nc(SCCCC(=O)O)n2Cc1cn(C)c2cccc(C)c12
55.2

Another molecule to look at: Cn1cc(Cn2c(SCCCC(=O)O)nc3ccccc32)c2ccccc21
60.3

Likewise for N#Cc1ccc2c(c1)nc(SCCCC(=O)O)n2Cc1csc2ccccc12 ?
57.9

Same read-out for Cc1cccc2c1c(Cn1c(SCCCC(=O)O)nc3ccccc31)cn2C ?
80.1

Request: Cc1cc2nc(SCCCC(=O)O)n(Cc3csc4ccccc34)c2cc1C
36.2
